These entries and their values trace back to ChEMBL document CHEMBL3885861.

APTT listing for selected molecules.
Species: Rattus norvegicus
Test Details: Open TG-GATES - Regimen: Daily Repeat
Assay type: toxicity, organism-based, Sprague-Dawley
Design: regimen Daily Repeat, gender Male, age 6 weeks
Condition Description: in vivo, po, 0 mg/kg, […], tissue Blood, route gavage, dose level Control, time 7 day
Numbers only; they are read as s.

Molecule	Experimental Value
CCOC(=O)[C@H](CCc1ccccc1)N[C@@H](C)C(=O)N1CCC[C@H]1C(=O)O	16.4
CN(C)[C@@H]1C(O)=C(C(N)=O)C(=O)[C@@]2(O)C(O)=C3C(=O)c4c(O)cccc4[C@@](C)(O)[C@H]3C[C@@H]12	18.8
CN1C(C(=O)Nc2ccccn2)=C(O)c2sc(Cl)cc2S1(=O)=O	20.1
C#C[C@]1(O)CC[C@H]2[C@@H]3CCC4=Cc5oncc5C[C@]4(C)[C@H]3CC[C@@]21C	22.8
CC(=O)Nc1nnc(S(N)(=O)=O)s1 [ACETAZOLAMIDE]	21.8
Cc1cccc(Nc2ccccc2C(=O)O)c1C	18.5
C1CCC(C(CC2CCCCN2)C2CCCCC2)CC1 (centres undefined)	21.5
CC(CN1c2ccccc2Sc2ccccc21)N(C)C (centres undefined)	22.2

Determine its reported APTT: `Clc1c(Cl)c(Cl)c(Cl)c(Cl)c1Cl` 15.8

###

Species: Rattus norvegicus
Test Details: Open TG-GATES - Regimen: Single
Format: toxicity, organism-based, Sprague-Dawley
Parameters: regimen Single, gender Male, age 6 weeks
Condition Description: in vivo, po, 0 mg/kg, 24 h, tissue Blood, route gavage, dose level Control
Mono listing for selected molecules.
Reply with a number, then the unit it belongs to.

Worked examples, 3 molecules total:
Molecule	Mono
COc1cc([C@@H]2c3cc4c(cc3[C@@H](O[C@@H]3O[C@@H]5CO[C@@H](C)O[C@H]5[C@H](O)[C@H]3O)[C@H]3COC(=O)[C@H]23)OCO4)cc(OC)c1O [ETOPOSIDE]	6%
O=[N+]([O-])c1ccc2c(c1)Cc1ccccc1-2	3.2%
Cc1cccc(Nc2ccccc2C(=O)O)c1C	2%

Determine its reported Mono: `Clc1c(Cl)c(Cl)c(Cl)c(Cl)c1Cl` 2.2%

Determine its reported Mono: `CN(C)[C@@H]1C(O)=C(C(N)=O)C(=O)[C@@]2(O)C(O)=C3C(=O)c4c(O)cccc4[C@@](C)(O)[C@H]3C[C@@H]12` 8.2%

Determine its reported Mono: CC(CN1c2ccccc2Sc2ccccc21)N(C)C (stereo unspecified) 2%

Determine its reported Mono: CC(=O)Nc1nnc(S(N)(=O)=O)s1 [ACETAZOLAMIDE] 1.6%

Determine its reported Mono: `C#C[C@]1(O)CC[C@H]2[C@@H]3CCC4=Cc5oncc5C[C@]4(C)[C@H]3CC[C@@]21C` 2.2%

Determine its reported Mono: C1CCC(C(CC2CCCCN2)C2CCCCC2)CC1 (stereo unspecified) 2.4%

Determine its reported Mono: `CN1C(C(=O)Nc2ccccn2)=C(O)c2sc(Cl)cc2S1(=O)=O` 3.2%

Determine its reported Mono: `CCOC(=O)[C@H](CCc1ccccc1)N[C@@H](C)C(=O)N1CCC[C@H]1C(=O)O` 8.2%

###

Neu listing for selected compounds.
Species: Rattus norvegicus
Test Details: Open TG-GATES - Regimen: Single
Format: toxicity, organism-based, Sprague-Dawley
Set-up: regimen Single, gender Male, age 6 weeks
Condition Description: in vivo, po, 0 mg/kg, 24 h, tissue Blood, route gavage, dose level Control
Numbers only; they are read as %.

Worked examples, 3 compounds total:
Compound	Neu (%)
C#C[C@]1(O)CC[C@H]2[C@@H]3CCC4=Cc5oncc5C[C@]4(C)[C@H]3CC[C@@]21C	14.8
Cc1cccc(Nc2ccccc2C(=O)O)c1C	16.4
CN(C)[C@@H]1C(O)=C(C(N)=O)C(=O)[C@@]2(O)C(O)=C3C(=O)c4c(O)cccc4[C@@](C)(O)[C@H]3C[C@@H]12	14.8

Determine its reported Neu: C1CCC(C(CC2CCCCN2)C2CCCCC2)CC1 (stereo not given) 21.2

###

Species: Rattus norvegicus
Test Details: Open TG-GATES - Regimen: Single
Assay type: toxicity, organism-based, Sprague-Dawley
Design: regimen Single, gender Male, age 6 weeks
Condition Description: in vivo, po, 0 mg/kg, 6 h, tissue Plasma, route gavage, dose level Control
Property Name: Cl (meq/L)
Numbers only; they are read as meq/L.

Compound	Experimental Value
CC(CN1c2ccccc2Sc2ccccc21)N(C)C (centres undefined) [PROMETHAZINE]	104.8

Determine its reported Cl: C1CCC(C(CC2CCCCN2)C2CCCCC2)CC1 (centres undefined) [PERHEXILINE] 105.2

Determine its reported Cl: COc1cc([C@@H]2c3cc4c(cc3[C@@H](O[C@@H]3O[C@@H]5CO[C@@H](C)O[C@H]5[C@H](O)[C@H]3O)[C@H]3COC(=O)[C@H]23)OCO4)cc(OC)c1O [ETOPOSIDE] 105

Determine its reported Cl: `CCOC(=O)[C@H](CCc1ccccc1)N[C@@H](C)C(=O)N1CCC[C@H]1C(=O)O` 105.2

Determine its reported Cl: CN(C)[C@@H]1C(O)=C(C(N)=O)C(=O)[C@@]2(O)C(O)=C3C(=O)c4c(O)cccc4[C@@](C)(O)[C@H]3C[C@@H]12 [TETRACYCLINE] 105.2

Determine its reported Cl: Cc1cccc(Nc2ccccc2C(=O)O)c1C [MEFENAMIC ACID] 102.8

Determine its reported Cl: CN1C(C(=O)Nc2ccccn2)=C(O)c2sc(Cl)cc2S1(=O)=O [LORNOXICAM] 103

Determine its reported Cl: Clc1c(Cl)c(Cl)c(Cl)c(Cl)c1Cl [PERCHLOROBENZENE] 102.6

Determine its reported Cl: CC(=O)Nc1nnc(S(N)(=O)=O)s1 [ACETAZOLAMIDE] 105

###

Organism: Rattus norvegicus
Test Details: Open TG-GATES - Regimen: Single
Format: toxicity, organism-based, Sprague-Dawley
Parameters: regimen Single, gender Male, age 6 weeks
Condition Description: in vivo, po, 0 mg/kg, 9 h, tissue Plasma, route gavage, dose level Control
Label scheme for CRE: lower than 0.3 mg/dL is false, 0.3 mg/dL and above is true.

Here are 6 compounds together with their reported answers.
Compound	Class Assignment
CCOC(=O)[C@H](CCc1ccccc1)N[C@@H](C)C(=O)N1CCC[C@H]1C(=O)O	true
CN(C)[C@@H]1C(O)=C(C(N)=O)C(=O)[C@@]2(O)C(O)=C3C(=O)c4c(O)cccc4[C@@](C)(O)[C@H]3C[C@@H]12	true
CC(CN1c2ccccc2Sc2ccccc21)N(C)C (stereo not given)	false
COc1cc([C@@H]2c3cc4c(cc3[C@@H](O[C@@H]3O[C@@H]5CO[C@@H](C)O[C@H]5[C@H](O)[C@H]3O)[C@H]3COC(=O)[C@H]23)OCO4)cc(OC)c1O [ETOPOSIDE]	true
C#C[C@]1(O)CC[C@H]2[C@@H]3CCC4=Cc5oncc5C[C@]4(C)[C@H]3CC[C@@]21C	false
C1CCC(C(CC2CCCCN2)C2CCCCC2)CC1 (stereo not given)	false

Consider now this further compound.
Please check the record CC(=O)Nc1nnc(S(N)(=O)=O)s1 [ACETAZOLAMIDE] and state if its CRE is at or above 0.3 mg/dL. false

###

Species on record: Rattus norvegicus
Test Details: Open TG-GATES - Regimen: Single
Format: toxicity, organism-based, Sprague-Dawley
Parameters: regimen Single, gender Male, age 6 weeks
Condition Description: in vivo, po, 0 mg/kg, 3 h, tissue Plasma, route gavage, dose level Control
Cl listing for selected compounds.
Reply with a number, then the unit it belongs to.

Determine its reported Cl: `CN1C(C(=O)Nc2ccccn2)=C(O)c2sc(Cl)cc2S1(=O)=O` 103.4 meq/L

Determine its reported Cl: CC(CN1c2ccccc2Sc2ccccc21)N(C)C (centres undefined) 105.8 meq/L

Determine its reported Cl: `Cc1cccc(Nc2ccccc2C(=O)O)c1C` 103 meq/L

Determine its reported Cl: COc1cc([C@@H]2c3cc4c(cc3[C@@H](O[C@@H]3O[C@@H]5CO[C@@H](C)O[C@H]5[C@H](O)[C@H]3O)[C@H]3COC(=O)[C@H]23)OCO4)cc(OC)c1O [ETOPOSIDE] 105 meq/L

Determine its reported Cl: CC(=O)Nc1nnc(S(N)(=O)=O)s1 [ACETAZOLAMIDE] 106.4 meq/L

Determine its reported Cl: `Clc1c(Cl)c(Cl)c(Cl)c(Cl)c1Cl` 103.4 meq/L

Determine its reported Cl: `CN(C)[C@@H]1C(O)=C(C(N)=O)C(=O)[C@@]2(O)C(O)=C3C(=O)c4c(O)cccc4[C@@](C)(O)[C@H]3C[C@@H]12` 103.6 meq/L

Determine its reported Cl: `CCOC(=O)[C@H](CCc1ccccc1)N[C@@H](C)C(=O)N1CCC[C@H]1C(=O)O` 105.4 meq/L

Determine its reported Cl: C1CCC(C(CC2CCCCN2)C2CCCCC2)CC1 (centres undefined) 106.8 meq/L
